Biological target: Chromatin remodeling regulator CECR2 (Homo sapiens, UniProt Q9BXF3)
Sequence (Q9BXF3 whole entry): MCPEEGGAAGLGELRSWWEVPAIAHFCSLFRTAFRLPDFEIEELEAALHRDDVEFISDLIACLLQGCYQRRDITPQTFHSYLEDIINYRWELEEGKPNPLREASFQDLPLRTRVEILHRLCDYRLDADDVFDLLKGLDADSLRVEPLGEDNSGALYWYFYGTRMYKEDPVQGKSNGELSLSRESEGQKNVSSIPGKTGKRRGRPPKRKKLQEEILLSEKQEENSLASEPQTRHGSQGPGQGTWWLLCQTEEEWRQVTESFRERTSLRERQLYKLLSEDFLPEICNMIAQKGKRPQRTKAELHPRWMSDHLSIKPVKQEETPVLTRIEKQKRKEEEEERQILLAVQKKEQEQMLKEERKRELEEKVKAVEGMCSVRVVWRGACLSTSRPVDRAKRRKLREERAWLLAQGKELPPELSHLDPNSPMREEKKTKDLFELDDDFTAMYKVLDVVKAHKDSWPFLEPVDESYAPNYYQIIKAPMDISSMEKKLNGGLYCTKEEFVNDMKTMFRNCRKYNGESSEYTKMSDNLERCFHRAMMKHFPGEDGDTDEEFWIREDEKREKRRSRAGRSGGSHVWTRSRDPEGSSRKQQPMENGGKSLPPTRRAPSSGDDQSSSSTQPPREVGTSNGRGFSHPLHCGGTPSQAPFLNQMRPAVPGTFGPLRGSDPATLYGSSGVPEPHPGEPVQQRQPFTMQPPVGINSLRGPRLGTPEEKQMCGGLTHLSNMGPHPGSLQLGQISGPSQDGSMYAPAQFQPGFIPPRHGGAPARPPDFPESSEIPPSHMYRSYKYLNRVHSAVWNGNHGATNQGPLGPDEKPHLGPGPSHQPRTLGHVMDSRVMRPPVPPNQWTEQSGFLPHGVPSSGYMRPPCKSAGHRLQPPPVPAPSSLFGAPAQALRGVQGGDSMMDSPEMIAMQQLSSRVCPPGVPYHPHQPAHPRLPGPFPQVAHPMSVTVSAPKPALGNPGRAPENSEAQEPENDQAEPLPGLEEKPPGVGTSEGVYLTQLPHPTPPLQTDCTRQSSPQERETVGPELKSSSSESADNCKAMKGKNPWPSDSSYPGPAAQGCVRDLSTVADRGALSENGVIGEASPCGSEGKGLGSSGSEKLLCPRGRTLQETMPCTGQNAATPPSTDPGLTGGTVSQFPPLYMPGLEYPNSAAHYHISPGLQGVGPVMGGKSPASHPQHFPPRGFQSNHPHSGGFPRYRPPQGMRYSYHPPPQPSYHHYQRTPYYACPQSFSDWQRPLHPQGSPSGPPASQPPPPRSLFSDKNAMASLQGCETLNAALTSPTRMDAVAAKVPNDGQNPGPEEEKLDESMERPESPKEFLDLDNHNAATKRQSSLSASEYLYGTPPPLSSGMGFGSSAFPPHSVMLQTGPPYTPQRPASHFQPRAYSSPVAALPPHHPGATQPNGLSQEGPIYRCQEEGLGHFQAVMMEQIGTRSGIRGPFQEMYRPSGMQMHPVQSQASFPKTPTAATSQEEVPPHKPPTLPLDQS
Test: Inhibition of recombinant His-tagged CECR2 (unknown origin) after 10 mins by TR-FRET assay
pIC50: −log10 of the molar value.

# structure smiles, system name, pIC50
records = [
    ("C=CCCn1cc(-c2cnc(OC)c(C(=O)N3CCOCC3)c2)c2cc[nH]c2c1=O", "Chromatin remodeling regulator CECR2 (Homo sapiens, UniProt Q9BXF3)", 6.00),
    ("C=CCCn1cc(-c2cccc(C(=O)N3CCN(CCO)CC3)c2)c2cc[nH]c2c1=O", "Chromatin remodeling regulator CECR2 (Homo sapiens, UniProt Q9BXF3)", 5.96),
    ("C=CCCn1cc(-c2cc(C(=O)N3CCOCC3)cc3c2ncn3C)c2cc[nH]c2c1=O", "Chromatin remodeling regulator CECR2 (Homo sapiens, UniProt Q9BXF3)", 5.92),
]
